System name: 肺炎支原体天然抗原(购自Microbix) (Mycoplasma pneumoniae)
Experiment summary: indirect ELISA on coated antigen (2 ug/ml), antibody 0.46 ng/ml
Listing: OD值 (450nm, 参考630nm) of selected binders
Provide only the numeric value, understood in OD.

Previously resolved entries follow.
Binder	OD值 (450nm, 参考630nm) [OD]
Anti-MP-11F5mut5 (antibody, mouse IgG1, kappa, V domains shown) VH: QVQLQQSGPELVKPGALVKISCKASGYTFTSFDINWVKQRPGQGLEWIGYIYPGDGSTKYNEKFKGKATLTADKSSSTAYMQFSSLTSENSAVYFCTRKGGWGAGHSAMDYWGQGTSVTVSS VL: DIQMTQTTSSLSASLGDRVTISCRASQAISNYLNWYQQRPDGTVKLLIYYTSRKNSGAPSRFSGSGSGTDYSLTISNIDQEDIATYFCQQGYTTPYTFGGGTKLEIKR	0.241
Anti-MP-11F5mut6 (antibody, mouse IgG1, kappa, V domains shown) VH: QVQLQQSGPELVKPGALVKISCKASGYTFTSFDINWVKQRPGQGLEWIGYIYPGDGSTKYNEKFKGKATLTADKSSSTAYMQFSSLTSEDSAVYFCTRKGGWGAGHSAMDYWGQGTSVTVSS VL: DIQMTQTTSSLSASLGDRVTISCRASQAISNYINWYQQRPDGTVKLLIYYTSRKNSGAPSRFSGSGSGTDYSLTISNLDQEDIATYFCQQGYTTPYTFGGGTKLEIKR	0.276

Task: State its OD值 (450nm, 参考630nm): Anti-MP-11F5mut1 (antibody, mouse IgG1, kappa, V domains shown) VH: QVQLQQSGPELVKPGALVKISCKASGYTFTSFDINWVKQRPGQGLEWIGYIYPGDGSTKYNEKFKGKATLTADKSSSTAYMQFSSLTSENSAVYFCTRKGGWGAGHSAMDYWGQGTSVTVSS VL: DIQMTQTTSSLSASLGDRVTISCRASQAIGNYLNWYQQRPDGTVKLLIYYTSRKNSGAPSRFSGSGSGTDYSITISNLDQEDIATYFCQQGYTTPYTFGGGTKLEIKR
Output: 0.201
